protocol: In vivo pharmacokinetics in Sprague-Dawley rats
test.context: male, rat, plasma, iv, 1 mg/kg
recorded.metric: half-life (min)
Write the answer as a number in min, unit excluded.

Exam item: Please look up its half-life: `N#Cc1ccc(Nc2ncc(CO)c(Oc3c(F)cc(-c4ccc(C#N)cc4)cc3F)n2)cc1`
Marked response: 90

###

protocol: Liver microsomal stability, dog
Assay type: in vitro ADME
test.context: dog liver microsomes, Clint(hep)
recorded.metric: CLint scaled (mL/min/kg)
Write the answer as a number in mL/min/kg, unit excluded.

Exam item: Please look up its CLint scaled: `N#Cc1ccc(Nc2ncc(CO)c(Oc3c(F)cc(-c4ccc(C#N)cc4)cc3F)n2)cc1`
Marked response: 179
